Assay: Pharmacokinetics assay in rats after intragastrical administration
Format: in vivo
Conditions: both sexes, Sprague-Dawley (SD), rat, plasma, po, 2 mg/kg, read-out: Area under curve AUC
parameter: AUC (ng·h/mL)
Kindly answer with a numeric value in ng·h/mL, unit omitted.

q: # lookup: AUC of O=C(Nc1cn[nH]c(=O)c1)c1cc(Cl)c(C(F)(F)F)cc1Oc1ccc(F)cc1C1CC1 [Example 31]
a: 5620

q: Request: O=C(Nc1cn[nH]c(=O)c1)c1cc(Cl)c(C(F)(F)F)cc1Oc1ccc(F)cc1OC1CC1 [Example 12]
a: 5980

q: Request: [2H]C([2H])([2H])Oc1cc(F)ccc1Oc1cc(C(F)(F)F)c(Cl)cc1C(=O)Nc1cn[nH]c(=O)c1 [Example 35]
a: 4330

q: Request: O=C(Nc1cn[nH]c(=O)c1)c1cc(Cl)c(C(F)(F)F)cc1Oc1ccc(F)cc1OC(F)(F)F [Example 15]
a: 5690

q: Request: COc1cc(F)ccc1Oc1cc(C(F)(F)F)c(Cl)cc1C(=O)Nc1cn[nH]c(=O)c1 [Example 11]
a: 1230

q: Request: Cc1cc(F)ccc1Oc1cc(C(F)(F)F)c(Cl)cc1C(=O)Nc1cn[nH]c(=O)c1 [Example 2]
a: 5960

q: Request: Cc1cc(F)ccc1Oc1cc(C(F)(F)F)c(Br)cc1C(=O)Nc1cn[nH]c(=O)c1 [Example 33]
a: 5550

* * *

What Vd/F was measured for each of the following?
Test: Pharmacokinetics assay in rats after intragastrical administration
Format: in vivo
Settings: both sexes, Sprague-Dawley (SD), rat, plasma, po, 2 mg/kg, read-out: Apparent distribution volume Vz/F
Kindly answer with a numeric value in L/kg, unit omitted.

q: # lookup: Vd/F of [2H]C([2H])([2H])Oc1cc(F)ccc1Oc1cc(C(F)(F)F)c(Cl)cc1C(=O)Nc1cn[nH]c(=O)c1 [Example 35]
a: 5.01

q: Request: O=C(Nc1cn[nH]c(=O)c1)c1cc(Cl)c(C(F)(F)F)cc1Oc1ccc(F)cc1OC(F)(F)F [Example 15]
a: 7.15

q: Request: O=C(Nc1cn[nH]c(=O)c1)c1cc(Cl)c(C(F)(F)F)cc1Oc1ccc(F)cc1OC1CC1 [Example 12]
a: 4.17

q: Request: O=C(Nc1cn[nH]c(=O)c1)c1cc(Cl)c(C(F)(F)F)cc1Oc1ccc(F)cc1C1CC1 [Example 31]
a: 5.44

q: Request: Cc1cc(F)ccc1Oc1cc(C(F)(F)F)c(Br)cc1C(=O)Nc1cn[nH]c(=O)c1 [Example 33]
a: 3.99

q: Request: COc1cc(F)ccc1Oc1cc(C(F)(F)F)c(Cl)cc1C(=O)Nc1cn[nH]c(=O)c1 [Example 11]
a: 5.33

q: Request: Cc1cc(F)ccc1Oc1cc(C(F)(F)F)c(Cl)cc1C(=O)Nc1cn[nH]c(=O)c1 [Example 2]
a: 4.71

* * *

Assay: Pharmacokinetics assay in rats after intragastrical administration
Format: in vivo
Settings: both sexes, Sprague-Dawley (SD), rat, plasma, po, 2 mg/kg, read-out: Clearance CL/F
parameter: CL/F (mL/min/kg)
Kindly answer with a numeric value in mL/min/kg, unit omitted.

q: # lookup: CL/F of Cc1cc(F)ccc1Oc1cc(C(F)(F)F)c(Cl)cc1C(=O)Nc1cn[nH]c(=O)c1 [Example 2]
a: 6.24

q: Request: COc1cc(F)ccc1Oc1cc(C(F)(F)F)c(Cl)cc1C(=O)Nc1cn[nH]c(=O)c1 [Example 11]
a: 32.3

q: Request: O=C(Nc1cn[nH]c(=O)c1)c1cc(Cl)c(C(F)(F)F)cc1Oc1ccc(F)cc1C1CC1 [Example 31]
a: 3.77

q: Request: O=C(Nc1cn[nH]c(=O)c1)c1cc(Cl)c(C(F)(F)F)cc1Oc1ccc(F)cc1OC1CC1 [Example 12]
a: 4.3
